Several publications report Ki on 5-hydroxytryptamine receptor 6 (Homo sapiens); those values are gathered here.
Answers are plain numbers, in nM.

// below: answered molecules
>>> df
                                   molecule  measurement_name  result
0  Cc1c(S(=O)(=O)Nc2ccc3c(c2)OC(CN[C@H](C)c2ccccc2)CC3)sc2ccc(Cl)cc12 (stereo partly drawn)                Ki      45
1  O=S(=O)(c1cccc2ccccc12)n1ccc2c(OC3CCNC3)cccc21 (stereo not drawn)                Ki      13
2  O=c1n(C2=CCNCC2)c2ccccc2n1S(=O)(=O)c1sc(Cl)cc1Br                Ki      10
3  Cc1ccc(S(=O)(=O)n2cc(C(F)F)c3cc(N4CCNCC4)ccc32)cc1                Ki      17
4  CN(C)CCn1c(=O)n(S(=O)(=O)c2ccc(Br)s2)c2ccccc21                Ki      40

For every item below, please supply its Ki.
1. Cc1ccc(S(=O)(=O)Nc2ccc3c(c2)OC(CN[C@H](C)c2ccccc2)CC3)cc1 (stereo partly drawn)
2. O=S(=O)(c1cccc(Cl)c1)c1cn(CC2CCCN2)c2ncccc12 (stereo not drawn)
3. CN(C)CCn1ccc2c3ccn(Cc4ccc(F)cc4)c(=O)c3ccc21

output:
1: 16; 2: 3; 3: 379
